target: Truncated topoisomerase II beta (C-terminal domain deleted) (human, UniProt Q02880 51-1268); assay: fluorescence anisotropy; 50 mM Tris pH 8, 5% glycerol, 50 mM KCl, 1% Triton X-100, 100 µg/ml acetylated BSA, 20°C; HEX oligo printed as 1 µM; 10 mM MgCl2 or CaCl2 where described; conditions: protein: recombinant; chain copies: 2; blunt; as printed S2 is not the exact complement of S1: 2 mismatches at S1 positions 34-35 (possible typo)
Sequence (Q02880 51-1268, stated change not applied): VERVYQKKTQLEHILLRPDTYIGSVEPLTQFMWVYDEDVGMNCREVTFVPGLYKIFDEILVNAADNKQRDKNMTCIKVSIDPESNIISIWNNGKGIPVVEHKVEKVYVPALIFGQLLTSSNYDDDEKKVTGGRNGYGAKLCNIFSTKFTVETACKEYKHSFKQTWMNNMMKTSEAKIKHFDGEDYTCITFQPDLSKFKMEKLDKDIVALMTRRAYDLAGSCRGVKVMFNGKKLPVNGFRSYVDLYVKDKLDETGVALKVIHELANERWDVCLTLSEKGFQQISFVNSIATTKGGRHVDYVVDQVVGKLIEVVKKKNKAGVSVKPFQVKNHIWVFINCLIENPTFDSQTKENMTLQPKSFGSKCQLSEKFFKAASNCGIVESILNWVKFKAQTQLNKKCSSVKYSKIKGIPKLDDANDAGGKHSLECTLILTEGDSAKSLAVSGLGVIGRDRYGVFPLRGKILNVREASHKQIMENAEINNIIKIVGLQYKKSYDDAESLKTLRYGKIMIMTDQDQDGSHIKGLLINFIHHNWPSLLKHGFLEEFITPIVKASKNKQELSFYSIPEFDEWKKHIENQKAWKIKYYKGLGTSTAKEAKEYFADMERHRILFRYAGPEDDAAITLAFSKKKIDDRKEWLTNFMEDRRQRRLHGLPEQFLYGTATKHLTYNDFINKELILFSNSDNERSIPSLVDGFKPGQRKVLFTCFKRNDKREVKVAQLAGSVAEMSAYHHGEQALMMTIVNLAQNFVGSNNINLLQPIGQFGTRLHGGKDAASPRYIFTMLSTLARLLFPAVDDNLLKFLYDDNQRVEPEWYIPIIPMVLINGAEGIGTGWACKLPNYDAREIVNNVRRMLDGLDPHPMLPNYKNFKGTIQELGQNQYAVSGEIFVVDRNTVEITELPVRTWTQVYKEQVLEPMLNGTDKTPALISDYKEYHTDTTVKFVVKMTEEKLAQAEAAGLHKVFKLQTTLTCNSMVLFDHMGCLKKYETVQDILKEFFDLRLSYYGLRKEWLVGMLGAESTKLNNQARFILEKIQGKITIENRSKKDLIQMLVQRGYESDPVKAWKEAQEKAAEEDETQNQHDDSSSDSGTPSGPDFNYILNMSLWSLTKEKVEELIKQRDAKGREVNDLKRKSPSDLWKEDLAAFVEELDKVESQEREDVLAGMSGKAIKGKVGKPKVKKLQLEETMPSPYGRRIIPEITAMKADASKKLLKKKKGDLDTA
quantityKind: Kd (nM)
One number for each entry, in nM.

### Prompt Give the value of Kd reported for the following: 40 bp oligo AB (dsDNA) DNA 1: CGCAATCTGACAATGCGCTCATCGTCATCCTCGCGACGCG DNA 2: CGCGTGCCGAGGATGACGATGAGCGCATTGTCAGATTGCG
### Response 17.8

These entries and their values trace back to paper PMC3040172.
